System: U937 cells
CONDITION CONTEXT: U937 cells; Table 1 section H3N2
Below: a set of entries, each annotated with reported CC50.
READOUT KIND: CC50 (µM)

[[record]]
compound = "COc1cc(Nc2ncc(F)c(Nc3ccc4c(n3)NC(=O)C(C)(C)O4)n2)cc(OC)c1OC [R406]"
readout_kind = "CC50"
units_label = "µM"
modifier = ">"
recorded_value = 100

[[record]]
compound = "Cc1ccc(Nc2ncc3c(n2)N(C)C(=O)N(c2cc(NC(=O)c4cccc(C(F)(F)F)c4)ccc2C)C3)cn1 [GNF-7]"
readout_kind = "CC50"
units_label = "µM"
modifier = "="
recorded_value = 13.6


###

Tested on: MCP-1 production in influenza virus-infected U937 cells (H1N1)
PROTOCOL NOTES: cells
Format: cell-based
CONDITION CONTEXT: Homo sapiens, U-937; read-out: EC50 MCP-1
READOUT KIND: EC50 (nM)

[[record]]
smiles_str = "Cc1ccc(C(=O)Nc2ccc(CN3CCN(C)CC3)c(C(F)(F)F)c2)cc1C#Cc1cnc2cccnn12"
target_or_test_system = "MCP-1 production in influenza virus-infected U937 cells (H1N1)"
recorded_value = 385


###

System: MCP-1 production in influenza virus-infected U937 cells (H1N1)
PROTOCOL NOTES: cells
Type: cell-based
CONDITION CONTEXT: Homo sapiens, U-937; read-out: IC50 MCP-1
pIC50: −log10 of the molar value.
Listed below: pIC50 values for each entry.
READOUT KIND: pIC50

[[record]]
smiles_str = "Cc1ccc(C(=O)Nc2ccc(CN3CCN(C)CC3)c(C(F)(F)F)c2)cc1C#Cc1cnc2cccnn12"
modifier = "="
recorded_value = 6.40

[[record]]
smiles_str = "O=C(NOC[C@H](O)CO)c1ccc(F)c(F)c1Nc1ccc(I)cc1F"
modifier = ">"
recorded_value = 7.70


###

Test system: IP-10 production in influenza virus-infected U937 cells (H1N1)
PROTOCOL NOTES: cells
Type: cell-based
CONDITION CONTEXT: Homo sapiens, U-937; read-out: IC50 IP-10
READOUT KIND: IC50

[[record]]
compound = "Cc1ccc(C(=O)Nc2ccc(CN3CCN(C)CC3)c(C(F)(F)F)c2)cc1C#Cc1cnc2cccnn12 [Ponatinib]"
recorded_value = "0.25 µM"


###

Test system: IP-10 production in influenza virus-infected U937 cells (H3N2)
PROTOCOL NOTES: cells
Format: cell-based, Human
CONDITION CONTEXT: Homo sapiens, U-937
EC50 overview
READOUT KIND: EC50 (nM)

[[record]]
compound = "Cc1cc(Nc2nc(N[C@@H](C)c3ncc(F)cn3)ncc2Cl)n[nH]1 [AZD1480]"
recorded_value = 17

[[record]]
compound = "Cc1ccc(C(=O)Nc2ccc(CN3CCN(C)CC3)c(C(F)(F)F)c2)cc1C#Cc1cnc2cccnn12 [Ponatinib]"
recorded_value = 59

[[record]]
compound = "Cc1nc(Nc2ncc(C(=O)Nc3c(C)cccc3Cl)s2)cc(N2CCN(CCO)CC2)n1 [Dasatinib]"
recorded_value = 17


###

PROTOCOL NOTES: in vitro
CONDITION CONTEXT: human, CC50, secondary screen, Supplemental Table 1
In this section, each of the molecules is paired with its reported CC50.
READOUT KIND: CC50 (µM)

[[record]]
molecule = "CNC(=O)c1cc(Oc2ccc(NC(=O)Nc3ccc(Cl)c(C(F)(F)F)c3)c(F)c2)ccn1"
readout_kind = "CC50"
modifier = "="
recorded_value = 20

[[record]]
molecule = "CC(C)(C)Cn1c(N)nc2ccc(-c3[nH]c(C(C)(C)C)nc3-c3ccc(F)cc3)nc21"
readout_kind = "CC50"
modifier = "="
recorded_value = 50

[[record]]
molecule = "CCN(CC)CCNC(=O)c1c(C)[nH]c(/C=C2\\C(=O)Nc3ccc(F)cc32)c1C [Sunitinib Malate]"
readout_kind = "CC50"
modifier = "="
recorded_value = 24.9

[[record]]
molecule = "Cc1cc(Nc2nc(N[C@@H](C)c3ccc(F)cc3)c(C#N)cc2F)n[nH]1"
readout_kind = "CC50"
modifier = "="
recorded_value = 6

[[record]]
molecule = "Cc1ccc(NC(=O)c2ccc(CN3CC[C@H](N(C)C)C3)c(C(F)(F)F)c2)cc1Nc1nccc(-c2cncnc2)n1"
readout_kind = "CC50"
modifier = "="
recorded_value = 100

[[record]]
molecule = "Cc1cc(Nc2cc(CN3CCOCC3)c3nc(C)c(Cc4ccc(Cl)cc4F)n3n2)n[nH]1"
readout_kind = "CC50"
modifier = "="
recorded_value = 26

[[record]]
molecule = "N#CCNC(=O)c1ccc(-c2ccnc(Nc3ccc(N4CCOCC4)cc3)n2)cc1"
readout_kind = "CC50"
modifier = "="
recorded_value = 5.4

[[record]]
molecule = "CC[C@@](C)(Nc1ccnc(-c2c[nH]c3ncccc23)n1)C(=O)NCC(F)(F)F"
readout_kind = "CC50"
modifier = "="
recorded_value = 50

[[record]]
molecule = "Cc1ccc(C(=O)Nc2ccc(CN3CCN(C)CC3)c(C(F)(F)F)c2)cc1C#Cc1cnc2[nH]ncc2c1"
readout_kind = "CC50"
modifier = "="
recorded_value = 4.8

[[record]]
molecule = "CNS(=O)(=O)C[C@H]1CC[C@H](N(C)c2ncnc3[nH]ccc23)CC1"
readout_kind = "CC50"
modifier = "="
recorded_value = 50

[[record]]
molecule = "CCOc1cc2ncc(C#N)c(Nc3ccc(F)c(Cl)c3)c2cc1NC(=O)/C=C/CN(C)C [Pelitinib (EKB-569), Pelitinib]"
readout_kind = "CC50"
modifier = "="
recorded_value = 1.7

[[record]]
molecule = "Cc1cc(Nc2nc(N[C@@H](C)c3ncc(F)cn3)ncc2Cl)n[nH]1"
readout_kind = "CC50"
modifier = "="
recorded_value = 13.5

[[record]]
molecule = "C[C@@H](Oc1ccc2[nH]nc(/C=C/c3cnn(CCO)c3)c2c1)c1c(Cl)cncc1Cl"
readout_kind = "CC50"
modifier = "="
recorded_value = 3.4

[[record]]
molecule = "CCS(=O)(=O)N1CCN(c2ccc(Nc3ncc(C(N)=O)c(NC4CC4)n3)cc2)CC1"
readout_kind = "CC50"
modifier = "="
recorded_value = 3.5

[[record]]
molecule = "C=CC(=O)N1CCC[C@@H](n2nc(-c3ccc(Oc4ccccc4)cc3)c3c(N)ncnc32)C1"
readout_kind = "CC50"
modifier = ">"
recorded_value = 100

